Catalogue of molecules with associated log10 of IC50
target: proteasome subunit β5 (beta5) (Homo sapiens); construct: Lysate from the human acute lymphoblastic leukemia cell line, MOLT-4; endogenous in cells; host or cells: MOLT-4; test: Proteasome active-site ELISA (ProCISE), beta5, MOLT-4 lysate; assay type: biochemical; conditions: read-out: ProCISE beta5 MOLT4 lysate Hu 1 h CONT: IC50; MOLT4 lysate, human, 1 h continuous treatment, 25° C.
EXPERIMENTAL READOUT: log10 of IC50 (log10 of the value in nM)

- MOLECULE: "COc1ccc(C[C@H](NC(=O)[C@H](C)NC(=O)[C@H]2CCCN2C)C(=O)N[C@@H](Cc2ccccc2)C(=O)[C@@]2(C)CO2)cc1 [Compound C-1164]"
  log10 of IC50: 2.76
- MOLECULE: "COc1ccc(C[C@H](NC(=O)[C@@H](NC(=O)CN2CCOCC2)[C@@H](C)O)C(=O)N[C@@H](Cc2ccccc2)C(=O)[C@@]2(C)CO2)cc1 [Compound C-1173]"
  log10 of IC50: 2.06
- MOLECULE: "COc1ccc(C[C@H](NC(=O)[C@@H](C)NC(=O)[C@H]2CC[C@H](O)CC2)C(=O)N[C@@H](Cc2ccc(O)cc2)C(=O)[C@@]2(C)CO2)cc1 [Compound C-1191]"
  log10 of IC50: 2.83
- MOLECULE: "COc1ccc(C[C@H](NC(=O)[C@@H](C)NC(=O)C2CCCCC2)C(=O)N[C@@H](Cc2ccccc2)C(=O)[C@@]2(C)CO2)cc1 [Compound C-1188]"
  log10 of IC50: 2.27
- MOLECULE: "C[C@H](NC(=O)CN1CCOCC1)C(=O)N[C@@H](Cc1ccncc1)C(=O)N[C@@H](Cc1ccccc1)C(=O)[C@@]1(C)CO1 [Compound C-1171]"
  log10 of IC50: 2.40
- MOLECULE: "COc1ccc(C[C@H](NC(=O)[C@@H](C)NC(=O)[C@H]2CC[C@H](O)CC2)C(=O)N[C@@H](Cc2ccc(C)cc2)C(=O)[C@@]2(C)CO2)cc1 [Compound C-1190]"
  log10 of IC50: 2.31
- MOLECULE: "COc1ccc(C[C@H](NC(=O)[C@@H](C)NC(=O)C2CCCC2)C(=O)N[C@@H](Cc2ccccc2)C(=O)[C@@]2(C)CO2)cc1 [Compound C-1189]"
  log10 of IC50: 2.68
- MOLECULE: "COc1ccc(C[C@H](NC(=O)[C@@H](CO)NC(=O)CN2CCOCC2)C(=O)N[C@@H](Cc2ccccc2)C(=O)[C@@]2(C)CO2)cc1 [Compound C-1158]"
  log10 of IC50: 2.94
- MOLECULE: "COc1ccc(C[C@H](NC(=O)[C@H](C)NC(=O)CN2CCOCC2)C(=O)N[C@@H](Cc2cccc(F)c2)C(=O)[C@@]2(C)CO2)cc1 [Compound C-1180]"
  log10 of IC50: 2.49
- MOLECULE: "COc1ccc(C[C@H](NC(=O)[C@@H](NC(=O)CN2CCOCC2)C2COC2)C(=O)N[C@@H](Cc2ccccc2)C(=O)[C@@]2(C)CO2)cc1 [Compound C-1183]"
  log10 of IC50: 2.00
- MOLECULE: "COc1ccc(C[C@H](NC(=O)[C@H](C)NC(=O)NN2CCOCC2)C(=O)N[C@@H](Cc2ccccc2)C(=O)[C@@]2(C)CO2)cc1 [Compound C-1178]"
  log10 of IC50: 3.58

---

biological target: immunoproteasome subunit LMP7 (Homo sapiens, UniProt P28062); construct: Lysate from the human acute lymphoblastic leukemia cell line, MOLT-4; endogenous in cells; host or cells: MOLT-4; assay: Proteasome active-site ELISA (ProCISE), LMP7, MOLT-4 lysate; format: biochemical; conditions: MOLT4 lysate, 1 h continuous treatment, 25° C.
Labelling: IC50 reported below 90 nM becomes TRUE; at or above becomes FALSE.

- LINE NOTATION: "COc1ccc(C[C@H](NC(=O)[C@H](C)NC(=O)CN2CCOCC2)C(=O)N[C@@H](Cc2ccccc2)C(=O)[C@@]2(C)CO2)cc1OC"
  ASSIGNED CLASS: "FALSE"
- LINE NOTATION: "C[C@H](NC(=O)CN1CCOCC1)C(=O)N[C@@H](Cc1coc2ccccc12)C(=O)N[C@@H](CC1CCCC1)C(=O)[C@@]1(C)CO1"
  ASSIGNED CLASS: "FALSE"
- LINE NOTATION: "COc1ccc([C@@H](O)[C@H](NC(=O)[C@H](CO)NC(=O)CN2CCOCC2)C(=O)N[C@@H](CC2=CCCC2)C(=O)[C@@]2(C)CO2)cc1"
  ASSIGNED CLASS: "TRUE"
- LINE NOTATION: "C[C@H](NC(=O)CN1CCOCC1)C(=O)N[C@@H](Cc1ccc(C#N)cc1)C(=O)N[C@@H](CC1CCCC1)C(=O)[C@@]1(C)CO1"
  ASSIGNED CLASS: "FALSE"
- LINE NOTATION: "COc1ccc(C[C@H](NC(=O)[C@H](C)NC(=O)CN2CCOCC2)C(=O)N[C@@H](CC2CCCC2)C(=O)[C@H]2CO2)cc1"
  ASSIGNED CLASS: "TRUE"

---

molecular target: proteasome subunit β5 (beta5) (Homo sapiens, UniProt P28074); construct: Lysate from the human acute lymphoblastic leukemia cell line, MOLT-4; endogenous in cells; host or cells: MOLT-4; assay: Proteasome active-site ELISA (ProCISE), beta5, MOLT-4 lysate; type: biochemical; conditions: MOLT4 lysate, human, 1 h continuous treatment, 25° C.
Listed here are compounds together with their documented IC50.
EXPERIMENTAL READOUT: IC50 (nM)

- LINE NOTATION: "C[C@H](NC(=O)CN1CCOCC1)C(=O)N[C@@H](Cc1ccc(C#N)cc1)C(=O)N[C@@H](CC1CCCC1)C(=O)[C@@]1(C)CO1"
  EXPERIMENTAL READOUT: "IC50"
  UNIT OF MEASUREMENT: "nM"
  TEST RESULT: 765
- LINE NOTATION: "COc1ccc([C@@H](O)[C@H](NC(=O)[C@H](C)NC(=O)CN2CCOCC2)C(=O)N[C@@H](CC2=CCCC2)C(=O)[C@@]2(C)CO2)cc1"
  EXPERIMENTAL READOUT: "IC50"
  UNIT OF MEASUREMENT: "nM"
  TEST RESULT: 561
- LINE NOTATION: "COc1ccc(C[C@H](NC(=O)[C@@H](C)NC(=O)C2CCOCC2)C(=O)N[C@@H](CC2CCCC2)C(=O)[C@@]2(C)CO2)cc1O"
  EXPERIMENTAL READOUT: "IC50"
  UNIT OF MEASUREMENT: "nM"
  TEST RESULT: 978

---

target: immunoproteasome subunit LMP7 (Homo sapiens); construct: Lysate from the human acute lymphoblastic leukemia cell line, MOLT-4; endogenous in cells; host or cells: MOLT-4; assay: Proteasome active-site ELISA (ProCISE), LMP7, MOLT-4 lysate; assay type: biochemical; settings: read-out: ProCISE LMP7 MOLT4 lysate Hu 1 h CONT: IC50, 1 h continuous treatment, 25° C.
pIC50: −log10 of the molar value.
# maps each entry to its pIC50

- LINE NOTATION: "COc1ccc(C[C@H](NC(=O)[C@@H](C)NC(=O)[C@H]2CC[C@H](O)CC2)C(=O)N[C@@H](Cc2ccc(C)cc2)C(=O)[C@@]2(C)CO2)cc1"
  TARGET OR SYSTEM: "immunoproteasome subunit LMP7 (Homo sapiens)"
  pIC50: 7.78
- LINE NOTATION: "COc1ccc(C[C@H](NC(=O)[C@H](C)NC(=O)CN2CCOCC2)C(=O)N[C@@H](Cc2ccc(C)cc2)C(=O)[C@@]2(C)CO2)cc1"
  TARGET OR SYSTEM: "immunoproteasome subunit LMP7 (Homo sapiens)"
  pIC50: 7.87
- LINE NOTATION: "COc1ccc(C[C@H](NC(=O)[C@@H](NC(=O)CN2CCOCC2)C2(O)CC2)C(=O)N[C@@H](Cc2ccccc2)C(=O)[C@@]2(C)CO2)cc1"
  TARGET OR SYSTEM: "immunoproteasome subunit LMP7 (Homo sapiens)"
  pIC50: 7.71

---

Molecular target: immunoproteasome subunit LMP7 (Homo sapiens)
Construct: Lysate from the human acute lymphoblastic leukemia cell line, MOLT-4; endogenous in cells; host or cells: MOLT-4
Experiment: Proteasome active-site ELISA (ProCISE), LMP7, MOLT-4 lysate
Type: biochemical
Conditions: MOLT4 lysate, 1 h continuous treatment, 25° C.
Excerpt: Test compounds were serially diluted in DMSO at 100× concentration, then diluted to 10× in aqueous hypotonic lysis buffer. […] A chemiluminescent substrate was used to generate signal associated with HRP binding, which was detected on a plate reader. Luminescent signal was normalized to protein content, then, percent activity calculated relative to DMSO-treated controls to generate IC50 curves.
Threshold check on IC50: strictly below 200 nM is Criterion met; on or above 200 nM is Criterion not met.

- COMPOUND: "COc1ccc([C@@H](O)[C@H](NC(=O)[C@H](C)NC(=O)CN2CCOCC2)C(=O)N[C@@H](CC2CCCC2)C(=O)[C@@]2(C)CO2)cc1 [Compound C-1022]"
  TARGET OR SYSTEM: "immunoproteasome subunit LMP7 (Homo sapiens)"
  ASSIGNED CLASS: "Criterion met"
- COMPOUND: "COc1ccc(C[C@H](NC(=O)[C@@H](C)NC(=O)[C@H]2CC[C@@H](O)CC2)C(=O)N[C@@H](CC2=CCCCC2)C(=O)[C@@]2(C)CO2)cc1 [Compound C-1097]"
  TARGET OR SYSTEM: "immunoproteasome subunit LMP7 (Homo sapiens)"
  ASSIGNED CLASS: "Criterion met"
- COMPOUND: "Cc1ccc(C[C@H](NC(=O)[C@H](C)NC(=O)CN2CCOCC2)C(=O)N[C@@H](CC2CCCC2)C(=O)[C@@]2(C)CO2)cc1O [Compound C-1117]"
  TARGET OR SYSTEM: "immunoproteasome subunit LMP7 (Homo sapiens)"
  ASSIGNED CLASS: "Criterion met"
- COMPOUND: "C[C@H](NC(=O)CN1CCOCC1)C(=O)N[C@@H](Cc1ccc(N(C)C)cc1)C(=O)N[C@@H](Cc1ccccc1)C(=O)[C@@]1(C)CO1 [Compound C-1161]"
  TARGET OR SYSTEM: "immunoproteasome subunit LMP7 (Homo sapiens)"
  ASSIGNED CLASS: "Criterion met"
- COMPOUND: "C[C@H](NC(=O)CN1CCOCC1)C(=O)N[C@@H](Cc1cc[n+]([O-])cc1)C(=O)N[C@@H](CC1CCCC1)C(=O)[C@@]1(C)CO1 [Compound C-1119]"
  TARGET OR SYSTEM: "immunoproteasome subunit LMP7 (Homo sapiens)"
  ASSIGNED CLASS: "Criterion not met"
- COMPOUND: "C[C@]1(C(=O)[C@H](CC2=CCCCC2)NC(=O)[C@H](Cc2ccc(S(C)(=O)=O)cc2)NC(=O)[C@H](CO)NC(=O)CN2CCOCC2)CO1 [Compound C-1110]"
  TARGET OR SYSTEM: "immunoproteasome subunit LMP7 (Homo sapiens)"
  ASSIGNED CLASS: "Criterion not met"
